Tested on: SK-MEL-28 melanoma
experiment summary: NCI-60 one-dose screen, 48 h
experimental parameters: 10 µM unless noted
Compounds without any hit were thinned out: in the full panel of roughly 83,000, 20% have a hit. Activity calls are given as the source filed them. The calls were made as follows: active = growth percent below 10; inactive = the rest.
Classes used: active, inactive

# compound, assigned label
data = [
    ("N#C[S-].[Au+].c1ccc(CN2[CH-]N(Cc3ccccc3)C(c3ccccc3)=C2c2ccccc2)cc1", "inactive"),
    ("Cc1ccc(C(=O)NCCCOc2ccc(N3C(N)=NC(N)=NC3(C)C)cc2Cl)cc1S(=O)(=O)F", "inactive"),
    ("CCC[CH2][Sn]([CH2]CCC)([CH2]CCC)[O]c1ccc(Cl)cc1Cl", "active"),
    ("Cc1ccc(Nc2nc3c(s2)C2=CC[C@@H]4[C@H](CC[C@]5(C)C(=O)CC[C@@H]45)[C@@]2(C)CC3)cc1", "inactive"),
    ("C=CCn1cc(C=C2C(=O)N(C)C(=O)N(C)C2=O)c2ccccc21", "inactive"),
    ("CC(=O)O[C@H](C[C@H](C(C)C)N(C)C(=O)[C@@H](NC(=O)[C@H]1CCCCN1C)C(C)(C)C)c1nc(C(=O)N[C@@H](Cc2ccccc2)C[C@H](C)C(=O)O)cs1", "inactive"),
    ("COc1cc(C=Nc2cccc(Br)c2)ccc1N(CCCl)CCCl", "inactive"),
    ("CC[C@H](C)[C@H](NC(=O)C12C3C4C1C1C2C3C41NC)C(=O)N(C)[C@H](C[C@@H](OC(C)=O)c1nc(C(=O)N[C@@H](Cc2ccccc2)C[C@H](C)C(=O)OC)cs1)C(C)C (some centres not stated)", "inactive"),
    ("O=C1CNC(c2ccccc2)c2cc(Cl)ccc2N1 (configuration not stated)", "inactive"),
    ("Nc1nnnc2nc[nH]c12", "inactive"),
    ("COc1ccc(C(=O)c2cc(OC)c(OC)c(OC)c2)cc1OC(C)=O", "inactive"),
    ("O=C1C2CC=CCC2C(=O)N1SC(Cl)(Cl)Cl (configuration not stated)", "inactive"),
    ("COC[C@@H]1C[C@@]2(C)[C@@H](CC[C@@H]3[C@@H]2CC[C@@]2(C)[C@H]3CC[C@]2(C)O)CC1=O", "inactive"),
    ("COc1ccc(/C=C\\c2cc(OC)c(OC)c(OC)c2)c(NS(=O)(=O)c2ccc(F)cc2)c1O", "inactive"),
    ("O=C1OCC2=C1C(c1ccccc1)c1cc3c(cc1N2)OCO3 (configuration not stated)", "inactive"),
    ("COC(=O)[C@H](C[C@H](Cc1ccccc1)NC(=O)c1csc([C@@H](C[C@H](C(C)C)N(C)C(=O)[C@@H](NC(=O)[C@H]2CCCCN2C)C(C)C)OC(C)=O)n1)NC(=O)OCc1ccccc1", "active"),
    ("O=C(CC1(O)C(=O)Nc2ccccc21)c1ccc(C(=O)NCC2CCC3(CC2)OOC2(CCCCC2)OO3)cc1 (configuration not stated)", "inactive"),
]

* * *

System: T-47D breast
experiment summary: NCI-60 one-dose screen, 48 h (100 = growth as untreated, 0 = no growth, -100 = all killed)
experimental parameters: 10 µM unless noted
The panel holds about 83,000 compounds, 20% with a hit somewhere; the sample as a whole holds those more often. Activity calls are given as the source filed them. How the source made its calls: active means growth percent below 10; inactive means the rest.
measurement type: growth

# molecule, experimental target, endpoint result
rows = [
    ("O=C1NC(=O)C(=Cc2ccc(OCCCCC3CCCCC3)c(Cl)c2)C(=O)N1", "T-47D breast", "91.6% (inactive)"),
    ("CCOC(=O)c1c(C)n(Cc2ccccc2)c2cc(CN(C)C)c(O)cc12", "T-47D breast", "61.1% (inactive)"),
    ("CCc1ccccc1[C@@H]1C[C@]2(C)CCO[C@@H]2OO1", "T-47D breast", "101% (inactive)"),
    ("Clc1cccc(NCOOC2(OOCNc3cccc(Cl)c3)CCCCCC2)c1", "T-47D breast", "89% (inactive)"),
    ("Cc1cc(C)cc(Nc2nc3c(s2)CC[C@@]2(C)C3=CC[C@@H]3[C@@H]2CC[C@]2(C)C(=O)CC[C@@H]32)c1", "T-47D breast", "28.9% (inactive)"),
    ("C#Cc1ccc2c(c1)C(c1ccccc1F)=NCC(=O)N2C", "T-47D breast", "40.9% (inactive)"),
    ("CN(C)C(=O)Oc1ccc(Br)cc1", "T-47D breast", "92.4% (inactive)"),
    ("COc1ccc(/C(C)=C(\\c2ccc(OCCN3CCOCC3)cc2)c2ccc(OC(=O)Cc3ccccc3)cc2)cc1", "T-47D breast", "65.4% (inactive)"),
    ("O=C([O][Hg][CH2]C1OCCOC1[CH2][Hg][O]C(=O)c1ccccc1)c1ccccc1 (stereo unspecified)", "T-47D breast", "-64.1% (active)"),
    ("Cc1cc(N(CCCl)CCCl)ccc1C=Nc1cccnc1", "T-47D breast", "45.3% (inactive)"),
    ("O=C(CCCCCCC(=O)Nc1ccc(N(CCCl)CCCl)cc1)NO", "T-47D breast", "-8.98% (active)"),
    ("CC[C@H](C)[C@H](NC(=O)[C@H]1CCCCN1C)C(=O)N(C)[C@H](C[C@@H](OC(C)=O)c1nc(C(=O)NC23CC(C(=O)OC)(C2)C3)cs1)C(C)C", "T-47D breast", "64.4% (inactive)"),
    ("COc1ccc(N(CC(=O)NCCC[Te]c2ccccc2)C(=O)CNC(=O)OC(C)(C)C)cc1", "T-47D breast", "109% (inactive)"),
    ("COc1ccc(C(O)(C(=O)O)c2ccc(OC)cc2)cc1", "T-47D breast", "76.4% (inactive)"),
    ("COC(=O)[C@@H](C)C[C@H](Cc1ccc(F)cc1)NC(=O)c1csc([C@@H](C[C@H](C(C)C)N(C)C(=O)[C@@H](NC(=O)[C@H]2CCCCN2C)C(C)C)OC(C)=O)n1", "T-47D breast", "77.3% (inactive)"),
    ("Cn1cc(C=O)c2nccnc21", "T-47D breast", "104% (inactive)"),
    ("C[C@]12CC[C@@H]3c4ccc(Oc5nc(N6CC6)nc(N6CC6)n5)cc4CC[C@H]3[C@@H]1CCC2=O", "T-47D breast", "33.7% (inactive)"),
    ("CC12CCC(O)CC1=CCC1C2CCC2(C)C(O)CCC12 (stereo unspecified)", "T-47D breast", "99.4% (inactive)"),
    ("Nc1cc2nc3ccccc3nc2cc1N", "T-47D breast", "52.7% (inactive)"),
    ("O=C(O)CNC(=O)C(Cl)(Cl)Cl", "T-47D breast", "94.5% (inactive)"),
    ("CCn1cnc2c(Nc3cccc(Cl)c3)nc(N[C@@H]3CCCC[C@@H]3N)nc21", "T-47D breast", "0.53% (active)"),
]

Attribution: PubChem BioAssay (NCI)
